Recorded values, source patent US8173693B2.

Tested on: Human prostate carcinoma PC-3 cells
Assay: SRB assay
Assay type: cell-based
Details: Homo sapiens, PC-3, 48 h
quantity-measured: GI50

COc1ccc(S(=O)(=O)N(C)c2cccc3c2[nH]c2c(C)ccc(C)c23)cc1 [Compound 15c] = > 10 µM

The molecule listed as O=S(=O)(Nc1cccc2c1[nH]c1ccccc12)c1cccc(C(F)(F)F)c1 [Compound 21b] shows GI50 equal to > 10 µM

The molecule listed as "Cc1ccc(C)c2c1[nH]c1c(NS(=O)(=O)c3cccc(C(F)(F)F)c3)cccc12" shows GI50 equal to > 10 µM

###

System: human nasopharyngeal carcinoma KB cells
Test: MTT assay
Format: cell-based
Conditions: Homo sapiens, KB; MTT assay, 72 hr
# IC50 annotations

Record excerpt, results attached:
Cc1ccc(S(=O)(=O)Nc2cccc3cc[nH]c23)cc1 [Compound 5b] = > 20 µM
NS(=O)(=O)c1ccc(S(=O)(=O)Nc2cccc3cc[nH]c23)cc1 [Compound 5g] = > 20 µM
O=[N+]([O-])c1ccc(S(=O)(=O)Nc2cccc3cc[nH]c23)cc1 [Compound 5e] = > 20 µM

The compound listed as Cc1ccc(C)c2c1[nH]c1c(NS(=O)(=O)c3ccc(N)cc3)cccc12 [Compound 6f] shows IC50 equal to > 20 µM
